- System: CAL-51
- protocol.description: normalised response (% of control), CellTiter-Glo; higher = more viable cells (100 = DMSO, 0 = benzethonium chloride kill control)
- experimental.parameters: incubation time: 72 h
value.kind: normalised response
Respond with a number, then the unit of measure.

compound | normalised response
Cc1ccc(NC(=O)c2ccc(CN3CCN(C)CC3)cc2)cc1Nc1nc(-c2cccnc2)cs1 [Masitinib] (1 nM) | 98.9%
O=C(Nc1cccnc1)N1CCC(Cc2cccc(Oc3ccc(C(F)(F)F)cn3)c2)CC1 [PF-3845] (1 nM) | 89.8%
COc1cc(OC2CCN(C)CC2)ccc1Nc1ncc2c(n1)n(C1CCCC1)c(=O)n2C [AZ 3146] (1 nM) | 101%

Q) Which measured normalised response value corresponds to CO[C@H]1C[C@@H]2CC[C@@H](C)[C@@](O)(O2)C(=O)C(=O)N2CCCC[C@H]2C(=O)O[C@H]([C@H](C)C[C@@H]2CC[C@@H](OP(C)(C)=O)[C@H](OC)C2)CC(=O)[C@H](C)/C=C(\C)[C@@H](O)[C@@H](OC)C(=O)[C@H](C)C[C@H](C)/C=C/C=C/C=C/1C [Ridaforolimus] (0.1 nM) ?
A) 114%

Q) Also CNC(=O)c1cc(Oc2ccc(NC(=O)Nc3ccc(Cl)c(C(F)(F)F)c3)c(F)c2)ccn1 [Regorafenib] (1 nM) , if possible.
A) 90.1%

----------
- Test system: MDA-MB-231
- protocol.description: normalised viability (% of control), CellTiter-Blue; higher = more viable cells (about 100 = DMSO control)
- experimental.parameters: 10000 nM; incubation time: 72 h
value.kind: normalised viability (%)
Please state the figure in %; there is no need to write the unit.

Known results for molecules:
structure.notation | normalised viability / %
O=C(/C=C/c1cccc(S(=O)(=O)Nc2ccccc2)c1)NO | 7.79
O=C(Nc1cccnc1)N1CCC(Cc2cccc(Oc3ccc(C(F)(F)F)cn3)c2)CC1 | 127
COc1cc2/c(=N/c3ccc(Br)cc3F)nc[nH]c2cc1OCC1CCN(C)CC1 | 8.26

Q) Which normalised viability reading was recorded for the molecule NC(=O)c1ccc(I)c([N+](=O)[O-])c1 ?
A) 111

Q) Continue with COCC[n+]1c2c(n(Cc3cnccn3)c1C)C(=O)c1ccccc1C2=O
A) 2.19

----------
- System: CAL-85-1
- protocol.description: normalised response (% of control), CellTiter-Glo; higher = more viable cells (100 = DMSO, 0 = benzethonium chloride kill control)
- experimental.parameters: incubation time: 72 h
Entries annotated with measured normalised response
Express the result in % but write the number alone.

Reference set (3 entries):
compound | units.text | normalised response
Oc1ccc2c(c1)CC[C@H](c1ccccc1)[C@@H]2c1ccc(OCCN2CCCC2)cc1 [Lasofoxifene] (1000 nM) | % | 100
COCC1(CO)C(=O)C2CCN1CC2 (centres undefined) [Prima-1 Met] (10000 nM) | % | 102
CCn1c(-c2nonc2N)nc2cnc(Oc3cccc(NC(=O)c4ccc(OCCN5CCOCC5)cc4)c3)cc21 (10000 nM) | % | 87.8

Let us move to another entry and its normalised response.
Q) Fill in: normalised response of COc1cc(O)c2c(c1)/C=C/C[C@H](O)[C@H](O)C(=O)/C=C\C[C@H](C)OC2=O [(5Z)-7-Oxozeaenol] (10000 nM) is ___
A) 13.9
